SUBJECT_OF_TEST: T1, Source 1 VEGF-D, mature dimeric recombinant human VEGF-D (CSIRO) (human, UniProt O43915 89-205)
T1 construct: Whole entry named; also called Source 1 VEGF-D dimer; VEGF-D dimer
T1 sequence: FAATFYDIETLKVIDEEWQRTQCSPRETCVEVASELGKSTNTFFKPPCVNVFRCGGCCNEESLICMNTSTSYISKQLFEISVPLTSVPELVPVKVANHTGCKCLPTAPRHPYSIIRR
ASSAY_TEXT: SPR Protocol A: IgG captured by anti-human Fc, VEGF-D dimer as analyte
Would you mind telling me the reported koff of each entry?
Please reply with the bare figure in s⁻¹ and do not write the unit itself.

Query (binder): humanized IgG antibody derived from clone HU75 (antibody, V domains shown, IgG) VH: QVQLVQSGAEVKQPGASVKVSCKASGYTFTGYNMYWVRQAPGQGLEWMGYIDPYNGDTTYNQKFKGRVTMTTDTSTSTAYMKLRSLRSDDTAVYYCARTSYYGGMDYWGRGTLVTVAS VL: DIVMTQTPLSGPVTLGQPASISCRSSQSLVHSNGNTYLHWLQQRPGQPPRLLIYKVSNRFSGVPDRFSGSGAGTDFTLKISRVEAEDVGVYYCSQSTHVPRTFGRGTKLEIKR ; field requested: koff
5.8e-05

Query (binder): humanized IgG antibody derived from clone HH69 (antibody, V domains shown, IgG) VH: QVQLVQSGAKVKQPGASVKASCKASGYTFTGYNMYWVRQAPGQGLEWMGYIDPYSGDTTYNQKFKGRVTMTTDTSTSTAYMELRSLRSDDTAVYYCARTSYYGGMDYWGRGTLVTVAS VL: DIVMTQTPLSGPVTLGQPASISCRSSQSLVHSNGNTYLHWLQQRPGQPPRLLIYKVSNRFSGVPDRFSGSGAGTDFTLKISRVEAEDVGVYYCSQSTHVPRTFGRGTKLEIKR ; field requested: koff
7.7e-05

Query (binder): humanized IgG antibody derived from clone HX28 (antibody, V domains shown, IgG) VH: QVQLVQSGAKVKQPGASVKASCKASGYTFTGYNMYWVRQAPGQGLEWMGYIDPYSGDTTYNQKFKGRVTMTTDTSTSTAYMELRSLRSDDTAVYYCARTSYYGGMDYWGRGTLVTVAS VL: DIVMTQTPLSSPVTLGQPASISCRSSQSLVHSNGNTYLHWLQQRPGQPPRLLIYKVSNRFSGVPGRFSGSGAGTDFTLKISRVEAEDVGVYYCSQSTHVPRTFGQGTKLEIKR ; field requested: koff
0.00014

Source of measurements: patent US20120093811A1
